Target: human TOP1 (Homo sapiens)
Construct: made in house; host or cells: Saccharomyces cerevisiae TOP1 null strain RS190, plasmid pHT143 (GAL promoter)
Test: TOP1 supercoiled plasmid DNA relaxation assay
Assay type: biochemical
Conditions: 30 min reaction; compounds at 100 μM; semiquantitative
measured.property: TOP1 Inhibition 30 min

compound: O=P(c1ccccc1)(c1ccccc1)c1ccc2nc(-c3cccc4ccccc34)c3c(c2c1)-c1ccccc1C3
TOP1 Inhibition 30 min: ++
--
compound: O=[N+]([O-])c1ccc(C2Nc3ccc(P(=O)(c4ccccc4)c4ccccc4)cc3C3c4ccccc4CC23)cc1 (centres unmarked)
TOP1 Inhibition 30 min: + (weak inhibition)
--
compound: O=P(c1ccccc1)(c1ccccc1)c1ccc2nc(-c3ccc(C(F)(F)F)cc3)c3c(c2c1)-c1ccccc1C3
TOP1 Inhibition 30 min: +++ (strong inhibition)
--
compound: O=C1c2ccccc2-c2c1c(-c1ccccc1)nc1ccc(P(=O)(c3ccccc3)c3ccccc3)cc21 [Compound 10a]
TOP1 Inhibition 30 min: ++
--
compound: O=P(c1ccccc1)(c1ccccc1)c1ccc2c(c1)C1c3ccccc3CC1C(c1cccc3ccccc13)N2 (centres unmarked)
TOP1 Inhibition 30 min: + (weak inhibition)

Can you give me TOP1 Inhibition 30 min for all of these, one by one?
1. O=P(c1ccccc1)(c1ccccc1)c1ccc2c(c1)C1c3ccccc3CC1C(c1ccc(C(F)(F)F)cc1)N2 (centres unmarked)
2. O=C1c2ccccc2-c2c1c(-c1ccc(C(F)(F)F)cc1)nc1ccc(P(=O)(c3ccccc3)c3ccccc3)cc21 [Compound 10b]
3. O=C1c2ccccc2-c2c1c(-c1cccc3ccccc13)nc1ccc(P(=O)(c3ccccc3)c3ccccc3)cc21 [Compound 10g]

Result:
["+++ (strong inhibition)", "++", "+ (weak inhibition)"]

---

Biological target: human TOP1 (Homo sapiens, UniProt P11387)
Construct: made in house; host or cells: Saccharomyces cerevisiae TOP1 null strain RS190, plasmid pHT143 (GAL promoter)
Sequence (P11387 1-765): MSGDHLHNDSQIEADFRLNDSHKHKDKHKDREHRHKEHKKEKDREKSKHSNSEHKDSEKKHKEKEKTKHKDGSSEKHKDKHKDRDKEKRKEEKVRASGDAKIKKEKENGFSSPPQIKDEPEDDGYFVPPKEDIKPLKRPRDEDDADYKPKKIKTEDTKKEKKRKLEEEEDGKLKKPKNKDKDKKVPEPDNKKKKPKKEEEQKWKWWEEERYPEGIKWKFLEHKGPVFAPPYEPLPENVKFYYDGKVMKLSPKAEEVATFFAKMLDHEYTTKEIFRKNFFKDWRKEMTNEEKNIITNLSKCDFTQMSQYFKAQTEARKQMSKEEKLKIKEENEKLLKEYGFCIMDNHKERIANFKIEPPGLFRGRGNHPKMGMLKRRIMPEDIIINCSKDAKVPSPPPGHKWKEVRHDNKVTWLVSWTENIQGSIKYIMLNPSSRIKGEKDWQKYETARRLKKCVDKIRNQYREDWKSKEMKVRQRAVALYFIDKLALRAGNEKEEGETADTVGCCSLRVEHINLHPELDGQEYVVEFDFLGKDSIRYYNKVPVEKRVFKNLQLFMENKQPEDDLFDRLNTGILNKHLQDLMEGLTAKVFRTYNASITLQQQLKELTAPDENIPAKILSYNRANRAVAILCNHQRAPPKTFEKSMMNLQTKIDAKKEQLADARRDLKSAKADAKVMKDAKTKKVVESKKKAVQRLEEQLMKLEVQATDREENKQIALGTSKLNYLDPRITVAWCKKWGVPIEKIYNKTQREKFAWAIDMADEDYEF
Test: TOP1 supercoiled plasmid DNA relaxation assay
Format: biochemical
Conditions: 3 min reaction; compounds at 100 μM; semiquantitative
Excerpt: The effect of the previously prepared compounds as TOP1 inhibitors was studied. A conventional supercoiled plasmid relaxation assay was used to determine if the newly fused tetrahydroindenoquinolines 8, more aromatic indenoquinolines 9, and carbonyl derivatives 10 with phosphine oxide substituents inhibit human TOP1 activity by converting supercoiled plasmid DNA to its relaxed form. […]
measured.property: TOP1 Inhibition 3 min

Below are worked cases with known answers.
compound: O=P(c1ccccc1)(c1ccccc1)c1ccc2c(c1)C1c3ccccc3CC1C(c1ccc(F)c(F)c1)N2 (stereo not shown) [Compound 8e]
system.under.test: human TOP1 (Homo sapiens, UniProt P11387)
TOP1 Inhibition 3 min: ++
--
compound: O=P(c1ccccc1)(c1ccccc1)c1ccc2nc(-c3ccc(F)cc3)c3c(c2c1)-c1ccccc1C3 [Compound 9c]
system.under.test: human TOP1 (Homo sapiens, UniProt P11387)
TOP1 Inhibition 3 min: + (weak inhibition)
--
compound: O=[N+]([O-])c1ccc(C2Nc3ccc(P(=O)(c4ccccc4)c4ccccc4)cc3C3c4ccccc4CC23)cc1 (stereo not shown) [Compound 8k]
system.under.test: human TOP1 (Homo sapiens, UniProt P11387)
TOP1 Inhibition 3 min: + (weak inhibition)
--
compound: O=P(c1ccccc1)(c1ccccc1)c1ccc2nc(-c3ccccc3)c3c(c2c1)-c1ccccc1C3 [Compound 9a]
system.under.test: human TOP1 (Homo sapiens, UniProt P11387)
TOP1 Inhibition 3 min: ++

Below: the item to evaluate.
Q: Give recorded TOP1 Inhibition 3 min with human TOP1 (Homo sapiens, UniProt P11387) for the following compound: COc1cccc(-c2nc3ccc(P(=O)(c4ccccc4)c4ccccc4)cc3c3c2Cc2ccccc2-3)c1 [Compound 9i]
Result: ++
